Documented cell viability across a set of molecules
system: U2OS; assay: cell viability relative to DMSO; higher = less toxic; settings: 72 h; 100 nM

molecule: NCC(=O)Nc1ccc(-n2nc(C(F)(F)F)cc2-c2ccc3c(ccc4ccccc43)c2)cc1 [AR-12]
target-of-assay: U2OS
cell viability (%): 95
--
molecule: CN1C(=O)N(c2cc(Cl)cc(Cl)c2)C(=O)[C@]12CN(Cc1cc(C(=O)O)cs1)C[C@H]2c1ccc(C#N)cc1
target-of-assay: U2OS
cell viability (%): 101
--
molecule: CSCC[C@H](NC(=O)[C@H](Cc1ccccc1)NC(=O)CNC(=O)CNC(=O)[C@@H](N)Cc1ccc(O)cc1)C(=O)O [metenkephalin]
target-of-assay: U2OS
cell viability (%): 102
--
molecule: Cc1cc(C)c(CNC(=O)c2cc(-c3ccc(N4CCN(C)CC4)nc3)cc3c2c(C)cn3C(C)C)c(=O)[nH]1 [GSK503]
target-of-assay: U2OS
cell viability (%): 104
--
molecule: Cc1csc(-c2nnc(Nc3ccc(Oc4ncccc4-c4ccnc(N)n4)cc3)c3ccccc23)c1 [AMG900]
target-of-assay: U2OS
cell viability (%): 85.5
--
molecule: C[C@]12C=CC(=O)C=C1CC[C@@H]1[C@@H]2[C@@H](O)C[C@@]2(C)[C@H]1CC[C@]2(O)C(=O)COC(=O)CCC(=O)O [prednisolone-hemisuccinate]
target-of-assay: U2OS
cell viability (%): 96
--
molecule: c1ccc(COCCCc2c[nH]cn2)cc1 [proxyfan]
target-of-assay: U2OS
cell viability (%): 102
--
molecule: Cc1cc(Cl)ccc1OCCCC(=O)NO [droxinostat]
target-of-assay: U2OS
cell viability (%): 96.6
--
molecule: Nc1nc(NCCNc2ncc(-n3ccnc3)c(-c3ccc(Cl)cc3Cl)n2)ccc1[N+](=O)[O-]
target-of-assay: U2OS
cell viability (%): 96.7
--
molecule: O=C(Nc1ccc(C(=O)O)c(O)c1)c1ccccc1 [benzoylpas]
target-of-assay: U2OS
cell viability (%): 92.8
--
molecule: Cc1cc(N2CCCCC2)nc2ccccc12 [ML204]
target-of-assay: U2OS
cell viability (%): 96.9
--
molecule: CNC(=O)[C@H]1O[C@@H](n2cnc3c(NCc4cccc(I)c4)ncnc32)[C@H](O)[C@@H]1O [IB-MECA]
target-of-assay: U2OS
cell viability (%): 102
--
molecule: C#C[C@]1(O)CC[C@H]2[C@@H]3CCc4cc(OC5CCCC5)ccc4[C@H]3CC[C@@]21C [quinestrol]
target-of-assay: U2OS
cell viability (%): 104
--
molecule: CCCCCCCC/C=C/C(=O)O [trans-2-undecenoic-acid]
target-of-assay: U2OS
cell viability (%): 102
--
molecule: COc1ccccc1N1CCN(CCCCN2C(=O)CCC2=O)CC1 [MM77]
target-of-assay: U2OS
cell viability (%): 94.9
--
molecule: COc1ccc2[nH]c(SCc3ncc(C)c(OC)c3C)nc2c1 [omeprazole-sulfide]
target-of-assay: U2OS
cell viability (%): 96.5
--
molecule: O=C(O)C1=C(CSc2nnnn2CS(=O)(=O)O)CS[C@@H]2[C@H](NC(=O)[C@H](O)c3ccccc3)C(=O)N12 [Cefonicid (sodium)]
target-of-assay: U2OS
cell viability (%): 94.3

* * *

tested on: A549-ACE2 infected with SARS-CoV-2; assay: SARS-CoV-2 infection rate relative to DMSO; higher = more infection; settings: 3 µM; 24 h
# if value of SARS-CoV-2 infection rate reaches 50%, tag Satisfied; if it stays below, tag Not satisfied

compound: Nc1ccc(C(=O)Nc2cccc(-c3nc(N4CCOCC4)c4oc5ncccc5c4n3)c2)cn1
class-assignment: Not satisfied
--
compound: C#C[C@]1(O)CC[C@H]2[C@@H]3CCc4cc(OC5CCCC5)ccc4[C@H]3CC[C@@]21C
class-assignment: Satisfied
--
compound: O=[N+]([O-])/C=C/c1ccc2c(c1)OCO2
class-assignment: Satisfied
--
compound: CN1CCC[C@@H]1CCO[C@](C)(c1ccccc1)c1ccc(Cl)cc1
class-assignment: Not satisfied
--
compound: Cc1cc(Nc2ncc(Cl)c(Nc3ccccc3S(=O)(=O)C(C)C)n2)c(OC(C)C)cc1C1CCNCC1
class-assignment: Not satisfied
--
compound: CC(C)n1cnc2c(NCCc3ccc(O)cc3)nc(-c3csc4ccccc34)nc21
class-assignment: Satisfied
